So I've got a bunch of compounds here, and I need their inhibition at 10 µM values.
biological target: MRSA PK (Staphylococcus aureus, UniProt Q6GG09); construct: His tag (pET-28a(+) vector) (N); made in house; host or cells: E. coli BL-21 (DE3); test: MRSA PK activity, continuous LDH-coupled assay; format: biochemical, S. aureus (MRSA strain Sanger 252); settings: read-out: % inhibition at the highest concentration tested (IC50)
Sequence (Q6GG09 whole entry): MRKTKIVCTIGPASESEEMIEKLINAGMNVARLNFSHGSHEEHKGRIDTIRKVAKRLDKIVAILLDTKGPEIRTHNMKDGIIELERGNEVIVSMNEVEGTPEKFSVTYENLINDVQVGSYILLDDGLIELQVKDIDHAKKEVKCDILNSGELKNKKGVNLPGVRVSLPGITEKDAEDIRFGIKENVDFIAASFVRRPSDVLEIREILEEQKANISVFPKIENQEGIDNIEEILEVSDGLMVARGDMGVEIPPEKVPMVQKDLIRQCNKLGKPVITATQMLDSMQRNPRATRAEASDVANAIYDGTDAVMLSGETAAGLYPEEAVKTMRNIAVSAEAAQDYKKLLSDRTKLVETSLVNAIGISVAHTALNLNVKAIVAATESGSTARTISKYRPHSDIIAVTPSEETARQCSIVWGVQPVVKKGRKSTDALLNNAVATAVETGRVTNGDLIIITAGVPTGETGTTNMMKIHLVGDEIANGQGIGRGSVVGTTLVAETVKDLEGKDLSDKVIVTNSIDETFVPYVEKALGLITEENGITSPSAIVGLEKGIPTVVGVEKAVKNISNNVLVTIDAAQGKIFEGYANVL
Numbers only, in %.

[
  {
    "Compound": "O=C(Nc1ccc(Br)cc1)c1cc2ccc(Br)cc2s1",
    "Unit text": "%",
    "Numeric readout": 55
  }
]

Return reported inhibition at 10 µM values for all items listed beneath this line.
1. Brc1ccc2[nH]c(-c3ccc(-c4cc5ccc(Br)cc5[nH]4)s3)cc2c1
2. Brc1cc2cc(-c3cc4ccccc4[nH]3)[nH]c2cc1Br [Compound 10j, 5,6-Dibromo-1H,1′H-2,2′-biindole]

Response given:
52
39
